- EXPERIMENT: solvent given as SMILES
- PROTOCOL CONDITIONS: in CC(C)=O
I would appreciate it if you labelled entries TRUE when emission maximum is 500 nm or higher, otherwise FALSE.

Some solved cases for reference:
{"MOLECULE": "CN(C)c1ccc2nc(/C=C/c3ccccc3)c(=O)oc2c1", "CATEGORY LABEL": "TRUE"}
{"MOLECULE": "Cc1ccc(-c2cc(-c3ccccc3Cl)c3c(N)nc(N4CCCC4)c(C#N)c3n2)cc1", "CATEGORY LABEL": "TRUE"}
{"MOLECULE": "Nc1ccc(/C=C2\\OC(=O)c3ccccc32)cc1", "CATEGORY LABEL": "FALSE"}
{"MOLECULE": "CN(C)c1ccc2nc(/C=C/c3cc4c5c(c3)CCCN5CCC4)c(=O)oc2c1", "CATEGORY LABEL": "TRUE"}
{"MOLECULE": "O=S1(=O)c2ccc(-c3ccc(N(c4ccccc4)c4ccccc4)cc3)cc2C2(c3ccccc3-c3ccccc32)c2cc(-c3ccc(N(c4ccccc4)c4ccccc4)cc3)ccc21", "CATEGORY LABEL": "FALSE"}
{"MOLECULE": "Oc1cccc(/N=C/c2ccccc2Oc2ccccc2)c1", "CATEGORY LABEL": "FALSE"}
{"MOLECULE": "Nc1ccc2cc(-c3ccc(C(F)(F)F)cc3)oc(=O)c2c1", "CATEGORY LABEL": "FALSE"}
{"MOLECULE": "CCn1c2ccccc2c2cc(/C=C/c3cccc[n+]3CCCS(=O)(=O)[O-])ccc21", "CATEGORY LABEL": "TRUE"}
{"MOLECULE": "FC(F)(F)c1ccc(/C=C/c2ccc(-c3nnc(-c4ccc(-c5cc6ccccc6s5)cc4)o3)cc2)cc1", "CATEGORY LABEL": "FALSE"}
{"MOLECULE": "CCN1\\C(=C/C=C/C=C/C2=[N+](CC)c3ccc4cc(Br)ccc4c3C2(C)C)C(C)(C)c2c1ccc1cc(Br)ccc21", "CATEGORY LABEL": "TRUE"}

Exam item: decide whether the reported emission maximum for CN1CCN(c2ccc3c4c(cccc24)C(=O)c2ccccc2-3)CC1 is at least 500 nm.
TRUE

Dear colleague, could you confirm whether O=P1(c2ccccc2)C(c2cc(C(F)(F)F)cc(C(F)(F)F)c2)=Cc2c3ccc4cccc5ccc(c6cc(-c7ccc(N(c8ccccc8)c8ccccc8)cc7)n1c26)c3c45 (stereo not drawn) has emission maximum at or above 500 nm?
TRUE

Check if emission maximum >= 500 nm (inclusive). Item: CCN1\C(=C/C=C/C=C/C2=[N+](CC)c3ccc4ccccc4c3C2(C)C)C(C)(C)c2c1ccc1ccccc21
TRUE
